Measured TGI by item
- Tested on: IGROV1 ovarian
- Assay protocol: NCI tumour cell line growth inhibition, 48 h

Use these answered entries as a reference point.
- Molecule: "CCOC(=O)C(=[N+]=[N-])C(=O)CN1C(=O)c2ccccc2C1=O"
  TGI: "> 100 µM"
- Molecule: "CCOC(=O)CCCSCCCC(=O)CCCSCCCC(=O)OCC"
  TGI: "> 100 µM"

// recorded TGI for "[O-][Cl+3]([O-])([O-])[O-].[O]=[Ru]=[O].c1ccc(-c2ccccn2)nc1.c1ccc(-c2ccccn2)nc1" : > 100 µM

// recorded TGI for COC(=O)CC(C)(NS(=O)c1ccc(C)cc1)c1ccccc1 (stereo unspecified) : > 100 µM

// recorded TGI for "Oc1ccc(NCn2c(=S)sc3ccccc32)cc1" : > 100 µM

// recorded TGI for C=C(C)C12OC1[C@@]1(C)C(=CC2=O)CCC(O)[C@@H]1C (stereo partly specified) : 13.3 µM

// recorded TGI for "Cc1ccc(S[C@@H](C)[C@@](O)(CF)CN(Cc2ccccc2)C(=O)C(F)(F)F)cc1" : > 100 µM
